The reported measurements were obtained from patent US10106538B2.

targetEntity: JAK2 (Homo sapiens, UniProt O60674)
Construct: purchased Carna Biosciences
Sequence (O60674 whole entry): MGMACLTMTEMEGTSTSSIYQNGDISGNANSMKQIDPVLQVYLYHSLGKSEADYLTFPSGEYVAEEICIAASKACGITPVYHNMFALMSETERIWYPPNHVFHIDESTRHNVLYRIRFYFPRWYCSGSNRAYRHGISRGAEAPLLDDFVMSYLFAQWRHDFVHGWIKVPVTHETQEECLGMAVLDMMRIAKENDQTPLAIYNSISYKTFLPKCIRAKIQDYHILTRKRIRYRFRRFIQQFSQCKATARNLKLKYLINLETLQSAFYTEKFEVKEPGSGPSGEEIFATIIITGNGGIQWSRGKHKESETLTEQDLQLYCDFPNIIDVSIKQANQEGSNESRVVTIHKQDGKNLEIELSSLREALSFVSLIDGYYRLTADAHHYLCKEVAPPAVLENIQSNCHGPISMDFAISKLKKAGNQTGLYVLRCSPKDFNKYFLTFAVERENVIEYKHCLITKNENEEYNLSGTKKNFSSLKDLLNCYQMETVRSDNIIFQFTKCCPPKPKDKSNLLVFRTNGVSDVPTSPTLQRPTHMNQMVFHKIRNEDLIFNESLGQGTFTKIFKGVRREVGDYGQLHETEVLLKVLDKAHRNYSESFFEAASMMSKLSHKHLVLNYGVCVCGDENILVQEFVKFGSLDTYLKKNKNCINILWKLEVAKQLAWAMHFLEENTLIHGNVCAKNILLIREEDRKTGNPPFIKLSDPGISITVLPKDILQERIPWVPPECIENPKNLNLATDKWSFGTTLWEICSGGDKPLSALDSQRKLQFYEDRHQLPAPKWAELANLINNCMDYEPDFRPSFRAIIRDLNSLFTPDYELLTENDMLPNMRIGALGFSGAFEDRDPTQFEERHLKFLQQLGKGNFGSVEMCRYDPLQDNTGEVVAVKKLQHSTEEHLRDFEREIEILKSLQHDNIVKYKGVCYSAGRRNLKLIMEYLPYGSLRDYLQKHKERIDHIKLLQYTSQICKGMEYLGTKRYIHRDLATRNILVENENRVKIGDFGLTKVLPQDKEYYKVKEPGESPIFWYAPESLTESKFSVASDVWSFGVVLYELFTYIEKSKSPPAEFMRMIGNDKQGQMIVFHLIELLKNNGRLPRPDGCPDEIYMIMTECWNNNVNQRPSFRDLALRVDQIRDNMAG
protocol: Off-chip Mobility Shift Assay (MSA) kinase inhibition
Format: biochemical
assayContext: inhibitor concentration 0.01 μM
Protocol: Off-chip Mobility Shift Assay (MSA) by Cama Biosciences, Inc (Natick, Mass.) a used for measuring the kinase activity and inhibition. • 1) The 5 μL of x4 compound solution, 5 μL of x4 Substrate/ATP/Metal solution, and 10 μL of x2 kinase solution were prepared with assay buffer (20 mM HEPES, 0.01% Triton X100, 2 mM DTT, pH 7.5) and mixed and incubated in a well of polypropylene 384 well microplate for 1 or 5 hour(s)* at room temperature.
As shown below, each of these compounds has a reported inhibition at 0.01 µM value.

COCCS(=O)(=O)Nc1ccc(F)c(C(=O)c2c[nH]c3ncc(-c4ccc(Cl)cc4)cc23)c1F [200-139] : < 20%

Query: Indicate its recorded inhibition at 0.01 µM; the compound in question is C/C=C/S(=O)(=O)Nc1ccc(F)c(C(=O)c2c[nH]c3ncc(-c4ccc(Cl)cc4)cc23)c1F [200-93a]
Result: > 30%

Query: Indicate its recorded inhibition at 0.01 µM; the compound in question is O=C(c1c(F)ccc(NS(=O)(=O)CCCO)c1F)c1c[nH]c2ncc(-c3ccc(Cl)cc3)cc12 [200-17]
Result: < 30%

Query: Indicate its recorded inhibition at 0.01 µM; the compound in question is COCCCS(=O)(=O)Nc1ccc(F)c(C(=O)c2c[nH]c3ncc(-c4ccc(Cl)cc4)cc23)c1F [200-123]
Result: < 20%

----------
targetEntity: JAK3 (Homo sapiens, UniProt P52333)
Construct: purchased Carna Biosciences
Sequence (P52333 whole entry): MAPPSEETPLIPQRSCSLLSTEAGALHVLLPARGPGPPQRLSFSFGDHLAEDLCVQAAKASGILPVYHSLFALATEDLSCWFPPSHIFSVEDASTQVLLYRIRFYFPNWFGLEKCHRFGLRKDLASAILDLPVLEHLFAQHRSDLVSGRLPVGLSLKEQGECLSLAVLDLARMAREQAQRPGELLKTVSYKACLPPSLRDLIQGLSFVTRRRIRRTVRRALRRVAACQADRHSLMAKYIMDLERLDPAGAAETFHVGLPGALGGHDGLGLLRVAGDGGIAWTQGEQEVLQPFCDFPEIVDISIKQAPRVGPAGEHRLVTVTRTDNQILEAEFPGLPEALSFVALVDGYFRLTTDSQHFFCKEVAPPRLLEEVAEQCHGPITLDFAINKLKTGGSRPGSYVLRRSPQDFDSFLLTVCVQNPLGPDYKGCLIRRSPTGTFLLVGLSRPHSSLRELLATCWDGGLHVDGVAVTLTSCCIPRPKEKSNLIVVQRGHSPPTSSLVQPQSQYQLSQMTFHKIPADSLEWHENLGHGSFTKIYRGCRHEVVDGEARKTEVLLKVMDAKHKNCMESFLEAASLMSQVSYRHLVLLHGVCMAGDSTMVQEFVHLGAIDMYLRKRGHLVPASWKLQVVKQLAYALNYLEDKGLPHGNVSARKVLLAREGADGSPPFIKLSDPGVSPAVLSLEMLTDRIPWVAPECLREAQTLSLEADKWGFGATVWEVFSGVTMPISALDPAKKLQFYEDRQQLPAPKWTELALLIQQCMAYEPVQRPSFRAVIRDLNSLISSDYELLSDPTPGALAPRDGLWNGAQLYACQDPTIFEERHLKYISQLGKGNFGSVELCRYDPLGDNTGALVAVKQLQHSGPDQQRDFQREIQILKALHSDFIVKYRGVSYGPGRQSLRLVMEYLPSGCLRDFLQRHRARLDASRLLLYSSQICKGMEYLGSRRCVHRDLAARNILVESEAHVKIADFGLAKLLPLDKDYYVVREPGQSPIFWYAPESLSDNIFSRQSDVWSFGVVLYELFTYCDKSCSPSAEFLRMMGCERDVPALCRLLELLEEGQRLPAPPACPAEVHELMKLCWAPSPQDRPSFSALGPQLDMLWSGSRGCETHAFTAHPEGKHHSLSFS
protocol: Off-chip Mobility Shift Assay (MSA) kinase inhibition
Format: biochemical
assayContext: inhibitor concentration 0.1 μM
As shown below, each of these molecules has a reported inhibition at 0.1 µM value.

CC(=O)CS(=O)(=O)Nc1ccc(F)c(C(=O)c2c[nH]c3ncc(-c4ccc(Cl)cc4)cc23)c1F [200-117] : < 30%
CC(O)CS(=O)(=O)Nc1ccc(F)c(C(=O)c2c[nH]c3ncc(-c4ccc(Cl)cc4)cc23)c1F (stereo not shown) [200-115] : < 30%
O=C(c1c(F)ccc(NS(=O)(=O)CCCO)c1F)c1c[nH]c2ncc(-c3ccc(Cl)cc3)cc12 [200-17] : < 50%

Let's switch to this molecule now.
Query: Find inhibition at 0.1 µM for O=C(c1c(F)ccc(NS(=O)(=O)CC(O)CO)c1F)c1c[nH]c2ncc(-c3ccc(Cl)cc3)cc12 (stereo not shown) [200-73] on JAK3 (Homo sapiens, UniProt P52333) and write it down.
Result: < 30%

----------
As shown below, each of these compounds has a reported inhibition at 0.1 µM value.
targetEntity: PDGFRα (Homo sapiens)
Construct: purchased Carna Biosciences
Sequence (P16234 24-1089): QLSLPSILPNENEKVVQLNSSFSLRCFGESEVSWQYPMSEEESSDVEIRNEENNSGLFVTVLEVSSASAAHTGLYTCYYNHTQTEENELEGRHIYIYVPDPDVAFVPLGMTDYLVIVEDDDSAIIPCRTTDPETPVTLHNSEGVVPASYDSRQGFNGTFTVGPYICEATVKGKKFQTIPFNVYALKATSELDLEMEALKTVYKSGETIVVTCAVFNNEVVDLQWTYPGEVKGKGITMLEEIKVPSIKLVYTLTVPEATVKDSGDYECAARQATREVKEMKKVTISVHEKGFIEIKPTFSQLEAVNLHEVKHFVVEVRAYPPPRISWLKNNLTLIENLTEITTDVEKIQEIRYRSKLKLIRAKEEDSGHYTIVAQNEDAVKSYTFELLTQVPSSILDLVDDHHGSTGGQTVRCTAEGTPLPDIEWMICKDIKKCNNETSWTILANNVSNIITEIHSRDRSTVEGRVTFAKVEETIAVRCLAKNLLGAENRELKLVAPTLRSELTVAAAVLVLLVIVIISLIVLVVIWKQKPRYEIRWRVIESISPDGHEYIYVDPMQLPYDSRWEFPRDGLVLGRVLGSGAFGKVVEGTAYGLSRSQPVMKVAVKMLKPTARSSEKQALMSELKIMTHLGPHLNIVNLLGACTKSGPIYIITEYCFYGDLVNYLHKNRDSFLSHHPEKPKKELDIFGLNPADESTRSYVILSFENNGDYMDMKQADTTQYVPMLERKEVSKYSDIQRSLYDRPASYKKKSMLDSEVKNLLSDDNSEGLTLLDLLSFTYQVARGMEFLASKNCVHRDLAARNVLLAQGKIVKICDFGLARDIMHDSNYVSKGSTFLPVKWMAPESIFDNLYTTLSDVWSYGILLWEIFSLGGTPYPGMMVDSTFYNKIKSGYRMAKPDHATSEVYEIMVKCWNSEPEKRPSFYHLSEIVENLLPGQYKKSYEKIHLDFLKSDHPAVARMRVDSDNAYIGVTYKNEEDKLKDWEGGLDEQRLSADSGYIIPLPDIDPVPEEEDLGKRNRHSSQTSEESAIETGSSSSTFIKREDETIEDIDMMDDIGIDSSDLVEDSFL
protocol: Off-chip Mobility Shift Assay (MSA) kinase inhibition
Type: biochemical
assayContext: inhibitor concentration 0.1 μM
Protocol: Off-chip Mobility Shift Assay (MSA) by Cama Biosciences, Inc (Natick, Mass.) a used for measuring the kinase activity and inhibition. • 1) The 5 μL of x4 compound solution, 5 μL of x4 Substrate/ATP/Metal solution, and 10 μL of x2 kinase solution were prepared with assay buffer (20 mM HEPES, 0.01% Triton X100, 2 mM DTT, pH 7.5) and mixed and incubated in a well of polypropylene 384 well microplate for 1 or 5 hour(s)* at room temperature.

O=C(c1c(F)ccc(NS(=O)(=O)CC(O)CO)c1F)c1c[nH]c2ncc(-c3ccc(Cl)cc3)cc12 (stereo not shown) [200-73] : < 30%
CC(O)CS(=O)(=O)Nc1ccc(F)c(C(=O)c2c[nH]c3ncc(-c4ccc(Cl)cc4)cc23)c1F (stereo not shown) [200-115] : > 30%
CC(=O)CS(=O)(=O)Nc1ccc(F)c(C(=O)c2c[nH]c3ncc(-c4ccc(Cl)cc4)cc23)c1F [200-117] : > 30%

Let's switch to this compound now.
Query: Find inhibition at 0.1 µM for O=C(c1c(F)ccc(NS(=O)(=O)CCCO)c1F)c1c[nH]c2ncc(-c3ccc(Cl)cc3)cc12 [200-17] on PDGFRα (Homo sapiens) and write it down.
Result: > 50%
